Biological target: T1, full-length human CD86 on HEK293 cells (human, UniProt P42081 24-329)
T1 sequence: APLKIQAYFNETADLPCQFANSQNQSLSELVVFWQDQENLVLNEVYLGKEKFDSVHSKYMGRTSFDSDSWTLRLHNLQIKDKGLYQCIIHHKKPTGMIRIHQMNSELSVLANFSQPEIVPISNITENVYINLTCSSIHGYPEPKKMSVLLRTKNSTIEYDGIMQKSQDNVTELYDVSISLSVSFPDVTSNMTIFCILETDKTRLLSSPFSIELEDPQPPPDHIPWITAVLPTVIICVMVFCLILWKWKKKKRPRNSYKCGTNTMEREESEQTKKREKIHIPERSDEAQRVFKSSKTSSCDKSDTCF
Test: cell-based or functional assay
Reported Metric: Mean IC50 (nM), CD4+ T cell proliferation
One number for each entry, in nM.

What the record says about D3-27-IgG2 (Fc fusion) MHVAQPAVVLASSRGIASFVCEYESPGKANEVRVTVLRQADSQVTEVCAMTYMKGNELTFLDDPSCTGTFSGNQVNLTIQGLRAMDTGLYICKVELMYPPPYYLGIGNGTQIYVIDPEPCPDSDERKCCVECPPCPAPPVAGPSVFLFPPKPKDTLMISRTPEVTCVVVDVSHEDPEVQFNWYVDGVEVHNAKTKPREEQFNSTFRVVSVLTVVHQDWLNGKEYKCKVSNKGLPAPIEKTISKTKGQPREPQVYTLPPSREEMTKNQVSLTCLVKGFYPSDIAVEWESNGQPENNYKTTPPMLDSDGSFFLYSKLTVDKSRWQQGNVFSCSVMHEALHNHYTQKSLSLSPG : Mean IC50 (nM), CD4+ T cell proliferation is 0.04

Cited source: patent US20110177071A1
